These data points were gathered from PubChem BioAssay AID651572.

Target: ADP-ribosylation factor GTPase-activating protein 1 (Rattus norvegicus) (UniProt Q62848)
Sequence (Q62848 1-136 limits assumed): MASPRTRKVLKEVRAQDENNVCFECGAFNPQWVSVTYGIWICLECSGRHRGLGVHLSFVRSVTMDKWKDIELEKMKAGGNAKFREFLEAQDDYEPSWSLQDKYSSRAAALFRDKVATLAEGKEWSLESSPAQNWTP
Assay: blockers of ARFGAP1-stimulated ARF1 GTP hydrolysis – biochemical, fluorescence polarization, GDP tracer, primary screen (AID 651572);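 note: 0% = DMSO wells with enzyme and 100% = wells lacking Arfgap1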
Settings: GDP FP detection, at 16.5 µM, stronger effect = higher value
Hit rate of the full screen: of about 360,000 compounds, about 950 (0.26%) were called active. Only a selection was taken, and actives are over-represented in it overall.
recorded-metric: inhibition (%)
State just the number; it will be interpreted in %.

(Q) State the recorded inhibition for this entry: O=S1(=O)c2c(cccc2N2CCCC2)O[C@H](COCc2ccccc2)CN1C1CC1
(A) -15.6

(Q) State the recorded inhibition for this entry: OC(COc1cccc(OCC(O)CN2CCCC2)c1)CN1CCCC1 (stereo not given)
(A) 28.2

(Q) State the recorded inhibition for this entry: C#CCN([C@@H](C)C(=O)OCC)S(=O)(=O)c1ccc(Br)cc1F
(A) -5.91

(Q) State the recorded inhibition for this entry: COC(=O)C1=C(C)N(Cc2ccc(F)cc2)C(=S)NC1c1cccc(Cl)c1 (stereo not given)
(A) 0.22

(Q) State the recorded inhibition for this entry: Clc1cccc2c1C1CC2CCN1Cc1ccccc1 (stereo not given)
(A) 1.92

(Q) State the recorded inhibition for this entry: COC(=O)N1Cc2ccnnc2CC1c1ccccc1Br (stereo not given)
(A) 0.38

(Q) State the recorded inhibition for this entry: O=C(N[C@H](C(=O)N1CCC[C@H]1C(=O)NCCc1ccccc1Cl)c1ccccc1)c1ccccc1
(A) 0.74

(Q) State the recorded inhibition for this entry: OC(COc1ccc(CN2CCSCC2)cc1)CN1CCCCC1 (stereo not given)
(A) -6.07

(Q) State the recorded inhibition for this entry: CCN(CC)c1ccc(NC(=O)CN2CCN(c3ccccn3)CC2)cc1
(A) 45.5

(Q) State the recorded inhibition for this entry: CCC(=O)Nc1ccc2c(c1)nc(CCN1CCN(c3ccccn3)CC1)n2C
(A) -11.6

(Q) State the recorded inhibition for this entry: COC(=O)Cc1nnn2c1[C@H](C)[C@H](c1ccccc1[N+](=O)[O-])OCC2
(A) 4.46

(Q) State the recorded inhibition for this entry: Cc1ccc(NC(=O)N2c3ccccc3SC2c2ccco2)c(C)c1 (stereo not given)
(A) -11.2

(Q) State the recorded inhibition for this entry: CCCCOCC1CN(CCCC)S(=O)(=O)c2c(Oc3ccc(F)cc3)cccc2O1 (stereo not given)
(A) -16.2

(Q) State the recorded inhibition for this entry: CCN1C(=O)N[C@@H]2C[C@H](C(=O)N3CCCC3)[C@H](C)[C@H](c3ccccc3)C[C@@H]21
(A) -0.64

(Q) State the recorded inhibition for this entry: Nc1[nH]c(C(=O)c2ccccc2)c(-c2ccc(Cl)cc2Cl)c1C(=O)c1ccccc1
(A) -3.18

(Q) State the recorded inhibition for this entry: N#Cc1ccc(OCCCN2CCC(C(O)(c3ccccc3)c3ccccc3)CC2)c(F)c1
(A) -2.6

(Q) State the recorded inhibition for this entry: Cc1cc(Br)cn2c(Cc3ccccc3C(F)(F)F)c(-c3ccc(C#N)cc3)nc12
(A) -8.18

(Q) State the recorded inhibition for this entry: CCOC(=O)CNC(=O)N(C)[C@H]1C[C@H]2c3[nH]c4c(-c5ccc6c(c5)OCO6)cccc4c3CCN2C(=O)[C@H]1[C@H](C)O
(A) -1.05

(Q) State the recorded inhibition for this entry: CCCCCCCCN1C(=O)[C@@H](CC(=O)NCCCC)C[C@@]2(C(=O)OC)C1=C[C@H](C(C)(C)C)O[C@@H]2C
(A) 3.82

(Q) State the recorded inhibition for this entry: CCNS(=O)(=O)c1ccc(NC(=O)Nc2cccc(C(F)(F)F)c2)cc1
(A) 28.9
